Reference source: the supplement of paper PMC4022240

Target: anti-H3K9me3 antibody ab8898
Test: peptide microarray binding signal (635 nm), min-max normalized on array (fraction of array maximum); higher = stronger binding
Settings: peptide region: Unmod H2B variant; binder concentration: 1:2,000 dilution
PROPERTY_NAME: peptide microarray binding signal
Answers are plain numbers.

Worked cases, answers included:
{"BINDER": "AMGIMNSFVNDIF [Unmod H2B variant A M G I M N S F V N D I F]", "peptide microarray binding signal": 0.00285}
{"BINDER": "PGELAKHAVSEGT [Unmod H2B variant P G E L A K H A V S E G T]", "peptide microarray binding signal": 0.00447}
{"BINDER": "ISKKGFKKAVVKT [Unmod H2B variant I S K K G F K K A V V K T]", "peptide microarray binding signal": 0.000257}
{"BINDER": "PEPSKSAPAPKKG [Unmod H2B variant P E P S K S A P A P K K G]", "peptide microarray binding signal": 0.000453}
{"BINDER": "EGTKAVTKYTSAK [Unmod H2B variant E G T K A V T K Y T S A K]", "peptide microarray binding signal": 0.000544}

The binder listed as DGKKRKRSRKESY [Unmod H2B variant D G K K R K R S R K E S Y] has a reported peptide microarray binding signal of 0.000151
